- Experiment Notes: PK study in rats
- Assay type: in vivo
- Condition Summary: male, SD, rat, plasma, po, 5 mg/kg

>  <Molecule>
C[C@@H](c1ccc(-n2cnc3c(N)ncnc32)cc1)N1CCc2nn(C)c(Cc3ccccc3)c2C1=O [compound 62]

>  <Cmax>
505 ng/mL

$$$$

* * *

- Experiment Notes: PK study in mice
- Assay type: in vivo
- Condition Summary: male, ICR, mouse, plasma, po, 10 mg/kg
Consider the following compounds and their measured MRT inf readings.

>  <Compound String>
Cn1ncc(C(=O)NCc2ccc(-n3cnc4c(N)ncnc43)cc2)c1Cc1ccccc1

>  <MRT inf, h>
2.55

$$$$
>  <Compound String>
Cn1nnc(C(=O)NCc2ccc(-n3cnc4c(N)ncnc43)cc2)c1Cc1ccccc1

>  <MRT inf, h>
5.75

$$$$
>  <Compound String>
C[C@@H](c1ccc(-n2cnc3c(N)ncnc32)cc1)N1Cc2nn(C)c(Cc3ccccc3)c2C1=O

>  <MRT inf, h>
2.75

$$$$
>  <Compound String>
C[C@H](NC(=O)c1cnn(C)c1Cc1ccccc1)c1ccc(-n2cnc3c(N)ncnc32)cc1

>  <MRT inf, h>
3.05

$$$$
>  <Compound String>
Cn1nc(Cl)c(C(=O)NCc2ccc(-n3cnc4c(N)ncnc43)cc2)c1Cc1ccccc1

>  <MRT inf, h>
4.05

$$$$

Values from paper PMC10793102
